B1: Intersectin-1, residues 909 to 971; numbered along this chain, Q15811 (parent)
chain: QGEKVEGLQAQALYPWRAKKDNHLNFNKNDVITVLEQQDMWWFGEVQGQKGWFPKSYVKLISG

variants of: B1; assay: abundance fitness (aPCA) (normalised: wild type 0, dead -1); higher = more abundant; growth selection in yeast, the domain comes from the species named; conditions: Homo sapiens
Think of -0.2 as a floor: if abundance fitness stands on it or above, it is Y; beneath it, N.

# mutation code, assigned category
data = [
    ("N22G", "Y"),
    ("Q11G", "N"),
    ("D39R", "Y"),
    ("E3A", "N"),
    ("P15T", "Y"),
    ("D21Q", "Y"),
    ("L35W", "Y"),
    ("V31P", "N"),
    ("K20A", "Y"),
    ("E45V", "Y"),
    ("W16Y", "N"),
    ("K50P", "N"),
    ("Y14P", "N"),
    ("L60R", "Y"),
    ("W42I", "N"),
    ("G51C", "N"),
    ("H23G", "Y"),
    ("Q47N", "Y"),
]
